Tested on: MCF7
assayText: NCI tumour cell line growth inhibition, 48 h
Active and inactive are the calls of the source. Cut-off read from the data, not from the text of the source: active = GI50 up to about 1.1 µM and inactive = higher.
Possible outcomes: active, inactive

molecule | labelClass
COc1cccc2c1C(=O)c1c(O)c3c(c(O)c1C2=O)C[C@H](O)C[C@@H]3OC1CC(N)C(O)C(C)O1 (stereo partly specified) | active
C#C[C@@]1(O)CCCC2=CC3(CC[C@]21C)SCCS3 | inactive
CCOC(=O)Cc1nc2sc(S(N)(=O)=O)nn2c1Br | inactive
O=[Se](O)O | inactive
O=C(NCCNCCNC(=O)C(F)(F)F)C(F)(F)F | inactive
O=C1CSc2nc3ccccc3n2/C=N\N1 | inactive
COc1cc(S(=O)(=O)Nc2nc(-c3ccc(/N=C/c4ccccc4O)cc3)cs2)ccc1Cl | inactive
O=NN1C(c2ccccc2)CCCC1c1ccccc1 (stereo unspecified) | inactive
COc1ccc2c(c1)C(N)CC2=O (stereo unspecified) | inactive
C[C@]12CCC(=O)C=C1CC[C@@H]1C2CC[C@]2(C)c3nn(-c4ccc(F)cc4)nc3CC12 (stereo partly specified) | inactive
O=C1NC(=O)[C@@H](OCC2CCCCC2)[C@@H]2OCC3OC(C(O)C3O)C12 (stereo partly specified) | inactive
O=c1[nH]c2cc3cccnc3c(Cl)c2nc1CBr | inactive
Cn1c(=O)c2nc(CCCCc3nc4c(=O)n(C)c(=S)n(C)c4[nH]3)[nH]c2n(C)c1=S | inactive
N=C(N)N/N=C/c1ccc(O)c(C(=O)O)c1 | inactive
CN(C)c1ccc(/C(Br)=C2\OC(=O)c3ccccc32)cc1 | active
C=CCN(CC=C)Cn1c(=S)sc2ccccc21 | inactive
c1ccc2nn(C3CCCCO3)nc2c1 (stereo unspecified) | inactive
COc1cc(O)c2c(=O)cc(-c3ccc(O)cc3O)oc2c1CC=C(C)C | inactive
C[C@@]12CCC3C1C=C1C(=O)c4cc(O)ccc4C(=O)[C@]1(O2)[C@@]3(C)C=O | inactive
Cc1sc2nc(-c3cc([N+](=O)[O-])c(Cl)cc3Cl)c(/C=N/NC(=N)N)n2c1C | inactive
COC(=O)C1CCC(=O)N1C(c1ccccc1)c1cc(OC)c(OC)c(OC)c1 (stereo unspecified) | inactive

====

System: BT-549
assayText: NCI tumour cell line growth inhibition, 48 h
Calls of active or inactive are those of the source. Cut-off read from the data, not from the text of the source: active = GI50 up to about 1.1 µM and inactive = higher. Where a SMILES comes first, the peptide text is derived from it. The star is where a group is joined. Boc = CC(C)(C)OC(=O)*; OBn = c1ccc(CO*)cc1
recordedEndpoint: GI50

molecule | endpointResult
CN(C)c1ccc(C(=NNC(=O)c2cc3ccccc3[nH]2)c2ccc(N(C)C)cc2)cc1 | 3.69 µM (inactive)
C=C(CN)CO[Si](C)(C)C(C)(C)C | > 100 µM (inactive)
CC(C)CC(NC(=O)C(Cc1ccccc1)NC(=O)C(Cc1ccccc1)NC(=O)OC(C)(C)C)C(=O)OCc1ccccc1 (stereo not drawn) (Boc-Phe-Phe-Leu-OBn; configuration not given here) | > 100 µM (inactive)
Clc1cc(-c2ccccc2)nc2ccccc12 | 18.8 µM (inactive)
CC(C)/C=N\N1C(N)=C(C#N)C(C#N)(C#N)C1C(C)C (stereo unspecified) | 35.2 µM (inactive)
CN(C)CCCNc1ccc([N+](=O)[O-])c2nc3ccccc3c(N)c12 | 1.48 µM (inactive)

====

Documented GI50 across a set of compounds
Test system: OVCAR-5
assayText: NCI tumour cell line growth inhibition, 48 h
The source made the active and inactive calls. Cut-off read from the data, not from the text of the source: active = GI50 up to about 1.1 µM and inactive = higher. Where a SMILES comes first, the peptide text is derived from it. [ ]: non-standard residue; d: D form. The star is where a group is joined. Phe(2-OMe) = COc1ccccc1C[CH](N)C(=O)O; 2Nal = N[CH](Cc1ccc2ccccc2c1)C(=O)O; pGlu = O=C1CC[CH](C(=O)O)N1; Cbz = O=C(OCc1ccccc1)*; OBn = c1ccc(CO*)cc1

compound | GI50
CN1CCN(C(=S)N(C)C(=O)c2cccs2)CC1 | > 100 µM (inactive)
CCc1n[nH]c(=O)n1CCCCCCCCCCCCn1c(CC)n[nH]c1=O | 47.1 µM (inactive)
O=C1N(CN2CCOCC2)CN(CN2CCOCC2)C(=O)N1Cc1ccc(-c2ccc(CN3C(=O)N(CN4CCOCC4)CN(CN4CCOCC4)C3=O)cc2)cc1 | 20.2 µM (inactive)
C=C(CN)CO[Si](C)(C)C(C)(C)C | > 100 µM (inactive)
C=C(C)[C@@H]1CCC2=C[C@H](CC(C)=CC3=CC(C)=C(O3)[C@@H]1OC)OC2=O | > 100 µM (inactive)
CN1CCN(/C(N)=C(\C#N)C(=O)Nc2ccccc2)CC1 | > 100 µM (inactive)
OCC1C2CCC3(OCCO3)C12 (stereo not given) | > 100 µM (inactive)
CC(NC(=O)C1CCC(=O)N1)C(=O)N1CCCC1C(N)=O (stereo not drawn) ([pGlu]-Ala-Pro-NH2; configuration not given here) | > 100 µM (inactive)
COC(=O)C(Cc1ccccc1OC)NC(=O)C(CC(=O)OCc1ccccc1)NC(=O)OCc1ccccc1 (stereo not given) (Cbz-Asp(OBn)-[Phe(2-OMe)]-OMe; configuration not given here) | > 100 µM (inactive)
CC(NC(=O)C(N)Cc1ccccc1)C(=O)NC(Cc1ccc(O)cc1)C(=O)NC(Cc1c[nH]c2ccccc12)C(=O)NC(CCCCN)C(=O)NC(C(=O)NC(C)C(=O)NC(Cc1ccc2ccccc2c1)C(N)=O)C(C)C (stereo not given) (H-FAYWKVA[2Nal]-NH2; configuration not given here) | > 12.5 µM (inactive)

====

Test system: SNB-75
assayText: NCI tumour cell line growth inhibition, 48 h
Calls of active or inactive are those of the source. No stated cut-off is given here; in the data, active = GI50 up to about 1.1 µM and inactive = higher.
Possible outcomes: active, inactive

compound | labelClass
c1ccc2c(c1)CCC/C2=N\OCC1CO1 (stereo not given) | inactive
CCOC(=O)NNC(=O)C1CSC(c2ccccc2)N1C(C)=O (stereo not given) | inactive
COc1cc(C2c3cc4c(cc3OC(N3CCCC3)C2C)OCO4)cc(OC)c1OC (stereo not given) | active
c1ccc2nn(C3CCCCO3)nc2c1 (stereo not given) | inactive
COc1cc(O)c2c(=O)cc(-c3ccc(O)cc3O)oc2c1CC=C(C)C | inactive
CC(=O)CC(OC(C)=O)C1=CCC2C(CC1C)OC(=O)C2C (stereo not given) | inactive
CC(C)(C)c1ccc(-n2c3nc(=O)n(-c4ccccc4C(F)(F)F)c(=O)c-3cc3ccccc32)cc1 | inactive
COc1cc(CNc2nc3ccccc3nc2C(=O)O)cc(OC)c1OC | inactive
O=CC(O)C(O)C1OC(=O)c2cc(O)c(O)c(O)c2C2=C(O)C(O)=C3OC(=O)c4c(c(O)c(O)c5c4C3C2C(=O)O5)-c2c(cc(O)c(O)c2O)C(=O)OCC1O (stereo not given) | inactive
CCOc1snc(C(Cl)(Cl)Cl)c1Cl | inactive
COC(=O)c1ccccc1/C=C1\Cc2c(C)c3c(c(C)c2C1=O)CCC3 | inactive
CCOC(=O)c1sc2c(C(=O)OCC)n3cc(C)cc(C)c3c2c1O | inactive
CC(C)(C)C1CC[C@H](O)[C@H]([C@H](O)CC2CC(=O)N(c3ccccc3)C(=O)C2)C1 (stereo not given in full) | inactive
C=CCN(c1cc(OCc2ccccc2)c(NC(C)=O)cc1[N+](=O)[O-])S(C)(=O)=O | inactive
COc1cc2c(/C=C3/C(=O)Nc4ccc(O)cc43)c(Cl)n(Cc3ccccc3)c2cc1C | active

====

System: MDA-MB-435
assayText: NCI tumour cell line growth inhibition, 48 h
Active and inactive are the calls of the source. No stated cut-off is given here; in the data, active = GI50 up to about 1.1 µM and inactive = higher.
Possible outcomes: Yes (active), No (inactive)

compound | targetSystem | labelClass
O=C1N(CN2CCOCC2)CN(CN2CCOCC2)C(=O)N1Cc1ccc(-c2ccc(CN3C(=O)N(CN4CCOCC4)CN(CN4CCOCC4)C3=O)cc2)cc1 | MDA-MB-435 | No
O=[N+]([O-])C(C(Cl)=C(Cl)Cl)=C(n1cncn1)n1cncn1 | MDA-MB-435 | No
CCCc1c(Cl)nc(Cl)nc1Cl | MDA-MB-435 | Yes
CN(C)c1ccc(/C(Br)=C2\OC(=O)c3ccccc32)cc1 | MDA-MB-435 | No
CCOc1snc(C(Cl)(Cl)Cl)c1Cl | MDA-MB-435 | No
O=c1[nH]c(=O)n(C2OC(CO)C(O)C2O)c2ncc(-c3ccc(-c4ccccc4)cc3)nc12 (configuration not stated) | MDA-MB-435 | No
C[n+]1c2ccccc2n2c3ccccc3c(NCCc3ccccn3)c(C#N)c21 | MDA-MB-435 | No
C#C[C@@]1(O)CCCC2=CC3(CC[C@]21C)SCCS3 | MDA-MB-435 | No
O=CC(O)C(O)C1OC(=O)c2cc(O)c(O)c(O)c2C2=C(O)C(O)=C3OC(=O)c4c(c(O)c(O)c5c4C3C2C(=O)O5)-c2c(cc(O)c(O)c2O)C(=O)OCC1O (configuration not stated) | MDA-MB-435 | No
O=c1[nH]n(Cc2ccccc2Cl)c2ccc([N+](=O)[O-])cc12 | MDA-MB-435 | No
CN(C)c1ccc(C(=NNC(=O)c2cc3ccccc3[nH]2)c2ccc(N(C)C)cc2)cc1 | MDA-MB-435 | Yes
Cc1ccc(S(=O)(=O)N2CCC[C@@H]2C(=O)O[C@@H]2CCC3CC=CC32)cc1 (some centres not stated) | MDA-MB-435 | No
O=[N+]([O-])c1ccc(N/N=C/c2ccc(OCCCCCCCCCCCO)cc2)c([N+](=O)[O-])c1 | MDA-MB-435 | No
C=C1C(=O)OC2/C=C(/C)C(OC(C)=O)CC(O)/C(C)=C\C(OC(=O)/C(C)=C\C)C12 (configuration not stated) | MDA-MB-435 | No
COc1cc(OCc2ccc3nc(OC)c(OC)nc3c2)cc(OC)c1OC | MDA-MB-435 | No
COc1ccc2c(c1)C(N)CC2=O (configuration not stated) | MDA-MB-435 | No
CN(C)CCn1c(=O)nc2c3c(c([N+](=O)[O-])ccc31)Nc1ccc(O)cc1-2 | MDA-MB-435 | No
CCOC(=O)NNC(=O)C1CSC(c2ccccc2)N1C(C)=O (configuration not stated) | MDA-MB-435 | No
CC(NNC(=O)c1ccc[n+]([BH2-]C#N)c1)c1ccccc1 (configuration not stated) | MDA-MB-435 | No
CN(C)C(=O)C1CCN(Cc2c[nH]c3ccccc23)CC1 | MDA-MB-435 | No
COC(=O)C1=C(O)C(C(=O)OC)[C@@]2(O)[C@@H](C(=O)OC)C(c3ccc(OC(=O)/C(=C/c4ccc(Cl)cc4)c4ccc(Cl)cc4)cc3)C[C@@H]1[C@@H]2C(=O)OC (some centres not stated) | MDA-MB-435 | No
CNC(=O)OCc1c(COC(=O)NC)c(-c2ccc(Cl)c(Cl)c2)n2c1SCC2 | MDA-MB-435 | No
